Every entry's value here was drawn from ChEMBL document CHEMBL1770066.

Test system: Mycobacterium tuberculosis
Test: Ratio of MIC for ethambutol to compound for Mycobacterium tuberculosis H37Rv
Assay type: functional
measure.name: Ratio

> print(dat)
                                   compound                assay.target  measure.name  measurement
1  Fc1cccc(/C=C2\CN(Cc3ccccc3)CC3=C2NC(=S)NC3c2cccc(F)c2)c1 (centres undefined)  Mycobacterium tuberculosis         Ratio          1.1
2  CN1CC2=C(NC(=S)NC2c2c(Cl)cccc2Cl)/C(=C/c2c(Cl)cccc2Cl)C1 (centres undefined)  Mycobacterium tuberculosis         Ratio          1.4
3  Fc1ccc(/C=C2\CN(Cc3ccccc3)CC3=C2NC(=S)NC3c2ccc(F)cc2)cc1 (centres undefined)  Mycobacterium tuberculosis         Ratio          2.2
4  S=C1NC2=C(CN(Cc3ccccc3)C/C2=C\c2ccc(Cl)cc2Cl)C(c2ccc(Cl)cc2Cl)N1 (centres undefined)  Mycobacterium tuberculosis         Ratio          2.7
